system: primary human hepatocytes (PHH) 3D spheroids
Measured quantity: Chemically defined spheroids (this study) 20x

For orientation, consider the following solved cases.
{"columns": ["Molecule", "Measured value"],
 "data": [
  ["CC[C@@H]1C(=O)OC[C@@H]1Cc1cncn1C [Pilocarpine]", "Negative"],
  ["CN(C)CCCN1c2ccccc2Sc2ccc(Cl)cc21 [Chlorpromazine]", "Positive"],
  ["NNCCc1ccccc1 [Phenelzine]", "Negative"],
  ["CCOC(=O)c1ncn2c1CN(C)C(=O)c1cc(F)ccc1-2 [Flumazenil]", "Negative"],
  ["CCCSc1ccc2nc(NC(=O)OC)[nH]c2c1 [Albendazole]", "Negative"],
  ["COc1ccccc1Oc1c(NS(=O)(=O)c2ccc(C(C)(C)C)cc2)nc(-c2ncccn2)nc1OCCO [Bosentan]", "Positive"],
  ["O=C(OCC(O)CO)c1ccccc1Nc1ccnc2cc(Cl)ccc12 (stereo not shown) [Glafenine]", "Negative"],
  ["CCN(CC)CC#CCOC(=O)C(O)(c1ccccc1)C1CCCCC1 (stereo not shown) [Oxybutynin]", "Negative"],
  ["CN(C)/N=N/c1[nH]cnc1C(N)=O [Dacarbazine]", "Positive"]
]}

Okay, now this molecule:
Please fill in: Chemically defined spheroids (this study) 20x reported for CC(CCc1ccccc1)NCC(O)c1ccc(O)c(C(N)=O)c1 (stereo not shown) [Labetalol] = Negative

====

tested on: primary human hepatocytes (PHH) 3D spheroids
Measured quantity: Chemically defined spheroids (this study) 20x

{"columns": ["Molecule", "Measured value"],
 "data": [
  ["Sc1ncnc2nc[nH]c12 [Mercaptopurine]", "Positive"],
  ["NNc1nnc(NN)c2ccccc12 [Dihydralazine]", "Positive"],
  ["CC(C)NCC(O)c1ccc(O)c(O)c1 (stereo not drawn) [Isoproterenol]", "Negative"],
  ["CNCCc1ccccn1 [Betahistine]", "Negative"]
]}

Given the molecule CCN(CC)C(=S)SSC(=S)N(CC)CC [Disulfiram] and test system primary human hepatocytes (PHH) 3D spheroids, the measured Chemically defined spheroids (this study) 20x is Positive

Given the molecule O=c1n(CCCN2CCN(c3cccc(Cl)c3)CC2)nc2ccccn12 [Trazodone] and test system primary human hepatocytes (PHH) 3D spheroids, the measured Chemically defined spheroids (this study) 20x is Positive

Given the molecule C=C[C@H]1C[N@@]2CC[C@H]1C[C@@H]2[C@@H](O)c1ccnc2ccc(OC)cc12 [Quinidine] and test system primary human hepatocytes (PHH) 3D spheroids, the measured Chemically defined spheroids (this study) 20x is Positive

====

experiment: in vitro; conditions: human
viability at 14 days, 1 × cmax listing for selected compounds.

For orientation, consider the following solved cases.
{"columns": ["Compound", "viability at 14 days, 1 × cmax"],
 "data": [
  ["Cn1cnc([N+](=O)[O-])c1Sc1ncnc2nc[nH]c12", "< 10%"],
  ["Cc1ccc(C(=O)c2cc(O)c(O)c([N+](=O)[O-])c2)cc1", "< 10%"]
]}

Okay, now this compound:
Please fill in: viability at 14 days, 1 × cmax reported for CC(=O)N1CCN(c2ccc(OCC3COC(Cn4ccnc4)(c4ccc(Cl)cc4Cl)O3)cc2)CC1 (stereo not drawn) = < 10%

====

assay: Animal hepatocyte spheroid hepatotoxicity (ATP viability, 14 days), minipig; assay type: cell-based, Gottingen minipig; settings: Gottingen, primary minipig hepatocyte 3D spheroids; minipig spheroids, no indication of hepatotoxicity
Measured quantity: viability at 14 days

Please fill in: viability at 14 days reported for Cc1ccc(-c2cc(C(F)(F)F)nn2-c2ccc(S(N)(=O)=O)cc2)cc1 [Celecoxib] = > 100%
